Biological target: MARV Ci67 GP1-649 (Marburg virus, isolate Ci67)
Assay: SPR (BIAcore 3000), GP1-649 amine-coupled on CM5, scFv in solution
Listed here are binders together with their documented kon.
Numbers only here, please. The scale is M⁻¹ s⁻¹.

Answered examples (2):
- BINDER: "scFv R4B11 (scFv, V domains shown) VH: QVQLEQSGAEVREPGASVKVSCKASGLTSGSYAITWVRQAPGQGLEWMGVIIPLVGVTNYAEKFQGRVTFTADTSTSTAYMELTSLRSDDTATYYCARDPFCSGNGCYGYYDVWGPGVKVTVSS VL: DIELTQSPSSLSASVGDRVTITCRASQDISSWLAWYQQKPGKAPKLLISSASTLQSGVPSRFSGSGSGTDFTLTINSLQSEDFATYYCQQYNSVPLTFGGGTKVEMK"
  kon [M⁻¹ s⁻¹]: 87600
- BINDER: "scFv R3H2 (scFv, V domains shown) VH: EVQLLESGGGLVQPGESLRLSCVVSGLSFSNHGVTWVRQAPGKGLDWVSSIDTDGGGTFYGDSVKGRFTISRDDSKNTVSLEMNSLRVEDTAVYYCAARQEYSDYYWGRGVPVTVSS VL: DIELTQSPAILSLSPGERATLLCRASQNVGNRLAWYHQRPGQAPRLLIYGASSRPTGIPDRFSGSGSGTEFTLTISSLEPEDVGVYYCQQDSNWPLTFGGGTRVEIK"
  kon [M⁻¹ s⁻¹]: 6390

Attention now shifts to the item below.
q: Dear colleague, I am looking for the recorded kon of the following binder: scFv R4G8 (scFv, V domains shown) VH: EVQLVESGGGLVQPGESLRLSCVVSGLSFSNHGVTWVRQAPGKGLDWVSSIDTDGGGTFYGDSVKGRFTISRDNSKSTVSLEMNSLRVEDTAVYYCAARQEYSDYYWGRGVLVTVSS VL: DIELTQSPAILSLSPGERATLLCRASQNVGNRLAWYHQRPGQAPRLLIYGASSRPTGIPDRFSGSGSGTEFTLTISSLEPEDVGVYYCQQDSNWPLTFGGGTRVEIK
a: 92300
